These entries and their values trace back to patent US20220356174A1.

Molecular target: FL-SMARCA2 (full-length human SMARCA2 isoform 1) (Homo sapiens, UniProt P51531)
Construct: FLAG tag (YKDDDDK) (C); made in house; host or cells: Sf21 insect cells (baculovirus, pFastBacI)
Sequence (P51531 with tags, fused parts or gaps): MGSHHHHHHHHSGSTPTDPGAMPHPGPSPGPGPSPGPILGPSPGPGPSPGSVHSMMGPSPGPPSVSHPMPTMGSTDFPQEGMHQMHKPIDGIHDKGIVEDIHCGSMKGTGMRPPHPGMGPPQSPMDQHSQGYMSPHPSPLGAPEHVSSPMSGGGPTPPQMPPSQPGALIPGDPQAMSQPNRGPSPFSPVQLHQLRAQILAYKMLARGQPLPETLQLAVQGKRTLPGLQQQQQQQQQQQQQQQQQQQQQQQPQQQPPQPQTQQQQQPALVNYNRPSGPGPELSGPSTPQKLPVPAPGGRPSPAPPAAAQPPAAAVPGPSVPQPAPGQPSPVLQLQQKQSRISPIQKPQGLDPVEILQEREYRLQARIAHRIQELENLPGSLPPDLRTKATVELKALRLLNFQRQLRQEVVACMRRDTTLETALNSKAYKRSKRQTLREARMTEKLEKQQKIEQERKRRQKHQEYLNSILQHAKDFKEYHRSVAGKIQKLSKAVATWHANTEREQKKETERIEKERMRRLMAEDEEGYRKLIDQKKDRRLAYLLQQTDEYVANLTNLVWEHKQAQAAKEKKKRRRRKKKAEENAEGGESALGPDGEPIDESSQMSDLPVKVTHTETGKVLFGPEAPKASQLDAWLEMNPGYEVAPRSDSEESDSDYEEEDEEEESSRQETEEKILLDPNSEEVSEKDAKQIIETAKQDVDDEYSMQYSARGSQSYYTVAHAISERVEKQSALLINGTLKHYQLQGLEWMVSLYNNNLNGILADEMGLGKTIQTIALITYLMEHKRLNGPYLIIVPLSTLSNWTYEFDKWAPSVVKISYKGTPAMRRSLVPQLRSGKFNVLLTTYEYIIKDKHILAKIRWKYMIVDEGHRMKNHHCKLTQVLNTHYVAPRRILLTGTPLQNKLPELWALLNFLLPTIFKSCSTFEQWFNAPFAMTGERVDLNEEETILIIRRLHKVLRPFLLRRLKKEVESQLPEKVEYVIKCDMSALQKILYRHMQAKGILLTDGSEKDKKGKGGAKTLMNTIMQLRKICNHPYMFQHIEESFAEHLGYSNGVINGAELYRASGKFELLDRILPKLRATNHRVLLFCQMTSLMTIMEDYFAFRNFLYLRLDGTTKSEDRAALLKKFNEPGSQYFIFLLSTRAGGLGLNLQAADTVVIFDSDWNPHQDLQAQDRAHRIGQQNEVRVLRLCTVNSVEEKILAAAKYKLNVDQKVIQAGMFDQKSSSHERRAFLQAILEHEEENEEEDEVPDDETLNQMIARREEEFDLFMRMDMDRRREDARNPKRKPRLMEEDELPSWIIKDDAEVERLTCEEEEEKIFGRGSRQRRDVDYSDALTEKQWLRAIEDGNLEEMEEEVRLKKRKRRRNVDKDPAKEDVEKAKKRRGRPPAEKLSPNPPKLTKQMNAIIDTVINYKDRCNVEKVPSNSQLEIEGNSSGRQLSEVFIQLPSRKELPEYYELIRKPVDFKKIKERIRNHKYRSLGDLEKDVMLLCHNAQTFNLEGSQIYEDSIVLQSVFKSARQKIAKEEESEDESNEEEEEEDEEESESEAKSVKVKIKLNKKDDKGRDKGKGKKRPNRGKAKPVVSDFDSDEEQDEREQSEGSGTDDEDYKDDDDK
Experiment: SMARCA2 ATPase activity assay (ADP-Glo, chicken mononucleosome substrate)
Format: biochemical
Settings: Table 3c.1; ATPase assay, enzyme 5 nM, ATP 250 uM, chicken mononucleosome 10 nM, 30 min preincubation
Procedure: Molecular Biology: Full-length human SMARCA2 isoform 1 (P51531) transcript clone was amplified from a cDNA library incorporating an N-terminal HIS tag ([…]) fused directly to Ser2 of SMARCA2 and a C-FLAG tag (YKDDDDK) fused directly to Glu1590 of SMARCA2. […] Expressed full-length SMARCA2 was purified from cell paste by FLAG affinity chromatography followed by anion exchange chromatography. […] The purity of the protein was measured as 74% using micro-capillary based gel electrophoresis.
pIC50: −log10 of the molar value.
Value Type: pIC50

- Compound: "Cc1nc(C#Cc2cc(C(=O)Nc3cc(F)c(=O)n(CC(F)F)c3)sc2Cl)cs1 [Compound 61c]"
  pIC50: 7.57

P = Cc1nsc(C#Cc2cc(C(=O)Nc3cc(F)c(=O)n(CC(F)F)c3)sc2Cl)n1 [Compound 139c]
Q = O=C(Nc1cc(C2COC2)c(=O)n(CC(F)F)c1)c1cc(F)c(Cl)s1 [Compound 155c]
INPUT: Kindly identify the item with the lower pIC50 figure among these two: P and Q Selection: enter the item's label.
OUTPUT: Q
(Q: 4.51, P: 7.22)

---

Target: FL-SMARCA4 (Homo sapiens, UniProt P51532)
Sequence (P51532 whole entry): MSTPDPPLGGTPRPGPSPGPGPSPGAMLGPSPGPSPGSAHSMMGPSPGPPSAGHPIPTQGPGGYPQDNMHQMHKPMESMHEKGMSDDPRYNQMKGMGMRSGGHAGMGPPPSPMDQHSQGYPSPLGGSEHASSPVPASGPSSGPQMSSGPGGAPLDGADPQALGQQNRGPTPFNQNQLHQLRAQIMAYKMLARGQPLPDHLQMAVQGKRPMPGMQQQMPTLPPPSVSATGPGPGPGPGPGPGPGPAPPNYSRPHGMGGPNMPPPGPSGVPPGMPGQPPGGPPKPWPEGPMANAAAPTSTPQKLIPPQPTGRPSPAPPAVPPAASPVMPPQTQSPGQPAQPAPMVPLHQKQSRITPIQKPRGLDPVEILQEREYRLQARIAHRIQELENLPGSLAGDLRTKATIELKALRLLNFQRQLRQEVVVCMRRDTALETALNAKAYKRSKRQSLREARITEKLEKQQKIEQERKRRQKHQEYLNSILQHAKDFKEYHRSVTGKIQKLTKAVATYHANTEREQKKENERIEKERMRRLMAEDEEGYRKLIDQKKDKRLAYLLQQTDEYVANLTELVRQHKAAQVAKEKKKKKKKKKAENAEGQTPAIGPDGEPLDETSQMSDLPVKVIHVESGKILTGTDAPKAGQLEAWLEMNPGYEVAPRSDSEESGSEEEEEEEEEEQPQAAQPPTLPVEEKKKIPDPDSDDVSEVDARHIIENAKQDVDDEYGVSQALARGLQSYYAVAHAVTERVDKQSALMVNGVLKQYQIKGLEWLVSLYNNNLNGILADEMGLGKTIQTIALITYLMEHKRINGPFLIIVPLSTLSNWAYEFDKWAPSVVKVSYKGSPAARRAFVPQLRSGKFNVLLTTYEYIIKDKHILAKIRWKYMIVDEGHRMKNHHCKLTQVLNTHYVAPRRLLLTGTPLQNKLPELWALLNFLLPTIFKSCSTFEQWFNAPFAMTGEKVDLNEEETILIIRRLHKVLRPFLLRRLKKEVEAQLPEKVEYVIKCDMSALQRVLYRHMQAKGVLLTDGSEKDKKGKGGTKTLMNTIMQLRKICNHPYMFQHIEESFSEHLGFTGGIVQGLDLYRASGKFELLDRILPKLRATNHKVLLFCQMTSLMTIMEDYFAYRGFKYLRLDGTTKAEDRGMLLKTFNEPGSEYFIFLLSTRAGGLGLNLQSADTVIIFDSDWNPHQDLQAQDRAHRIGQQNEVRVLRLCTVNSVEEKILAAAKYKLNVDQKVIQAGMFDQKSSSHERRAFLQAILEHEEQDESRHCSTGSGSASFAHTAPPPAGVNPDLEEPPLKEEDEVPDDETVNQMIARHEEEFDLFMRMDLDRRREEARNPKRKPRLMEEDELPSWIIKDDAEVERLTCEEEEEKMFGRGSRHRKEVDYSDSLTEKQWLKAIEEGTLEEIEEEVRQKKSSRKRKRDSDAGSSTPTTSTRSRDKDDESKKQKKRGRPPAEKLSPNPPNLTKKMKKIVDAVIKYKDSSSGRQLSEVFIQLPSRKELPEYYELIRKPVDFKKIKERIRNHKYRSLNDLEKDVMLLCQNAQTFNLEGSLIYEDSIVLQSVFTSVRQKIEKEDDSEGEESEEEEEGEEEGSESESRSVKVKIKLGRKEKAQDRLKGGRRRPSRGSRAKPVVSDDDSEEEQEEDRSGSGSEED
Assay: SMARCA4 ATPase activity assay (ADP-Glo, chicken mononucleosome substrate)
Details: FL-SMARCA4 IC50, Table 3.2; ATPase assay, enzyme 5 nM, ATP 250 uM, chicken mononucleosome 10 nM, 30 min preincubation
Value Type: IC50 (µM)

Check out these entries, answers already filled in.
- Compound: "CCn1cc(NC(=O)c2cc(Cl)c(C)s2)ccc1=O"
  Endpoint Result: 35.6
- Compound: "CC(O)C#Cc1cc(C(=O)Nc2cc(F)c(=O)n(CC(F)F)c2)sc1Cl (stereo not shown)"
  Endpoint Result: 2.32
- Compound: "O=C(Nc1cc(F)c(=O)n(CCF)c1)c1cc(Cl)c(CO)s1"
  Endpoint Result: 30.6

a = N#Cc1cc(C(=O)Nc2ccc(=O)n(CC(F)(F)F)c2)sc1Cl
b = N#Cc1sc(C(=O)Nc2cc(F)c(=O)n(CCF)c2)cc1Cl
INPUT: // returns a or b , whichever has the lower IC50 API: response body contains the label of the selected item.
OUTPUT: b
(b: 0.0541 µM, a: 0.831 µM)

P = O=C(Nc1cc(F)c(=O)n(CCF)c1)c1cc(F)c(Cl)s1
Q = O=C(Nc1cc(F)c(=O)n(CCF)c1)c1cnc(OC(F)F)s1
R = O=C(Nc1cc(F)c(=O)n(CC(F)F)c1)c1cc(-c2nnco2)c(Cl)s1
INPUT: Thanks in advance: please rank these 3 entries by IC50, highest to lowest. Kindly provide the labels arranged according to the requested ordering.
OUTPUT: Q, R, P
(Q: 24.9 µM, R: 13.5 µM, P: 0.0654 µM)

I = CCn1cc(NC(=O)c2cc(Cl)c(Cl)s2)cc(C#N)c1=O
II = CCn1cc(NC(=O)c2cc(Cl)c(C#N)[nH]2)cc(Cl)c1=O
III = O=C(Nc1cc(F)c(=O)n(CC(F)F)c1)c1cc(C#Cc2ccncc2)c(Cl)s1
IV = CCn1cc(NC(=O)c2cc(OC)c(Cl)s2)ccc1=O
INPUT: Sort entries by IC50 from minimum to maximum value. In plain terms: list the labels in the order you were asked to.
OUTPUT: III, II, I, IV

---

Molecular target: FL-SMARCA4 (Homo sapiens)
Test: SMARCA4 ATPase activity assay (ADP-Glo, chicken mononucleosome substrate)
Conditions: FL-SMARCA4 IC50, Table 3.2; ATPase assay, enzyme 5 nM, ATP 250 uM, chicken mononucleosome 10 nM, 30 min preincubation
Value Type: IC50 (µM)

Some compounds with known IC50 results, for comparison:
- Compound: "O=C(Nc1cc(Cl)c(=O)n(CC(F)F)c1)c1cc(F)c(Cl)s1"
  Unit Name: "µM"
  IC50: 0.104
- Compound: "N#Cc1sc(C(=O)Nc2cc(C#N)c(=O)n(CCF)c2)cc1Cl"
  Unit Name: "µM"
  IC50: 0.694

A = O=C(Nc1cc(NCC2CCCN2)c(=O)n(CCF)c1)c1cc(Cl)c(Cl)s1 (stereo not drawn)
B = CCn1cc(NC(=O)c2cc(Cl)c(Cl)[nH]2)cc(F)c1=O
INPUT: Of the two listed items, which has the higher IC50? First: A Second: B Choose, then provide that item's label.
OUTPUT: A

---

Molecular target: FL-SMARCA2 (full-length human SMARCA2 isoform 1) (Homo sapiens)
Construct: FLAG tag (YKDDDDK) (C); made in house; host or cells: Sf21 insect cells (baculovirus, pFastBacI)
Experiment: SMARCA2 ATPase activity assay (ADP-Glo, chicken mononucleosome substrate)
Type: biochemical
Settings: Table 3c.1; ATPase assay, enzyme 5 nM, ATP 250 uM, chicken mononucleosome 10 nM, 30 min preincubation
Value Type: IC50 (nM)

Solved cases (8 shown):
- Compound: "O=C(Nc1cc(F)c(=O)n(CC(F)F)c1)c1cc(C#Cc2cn3c(n2)CNCC3)c(Cl)s1 [Compound 147c]"
  Study Target: "FL-SMARCA2 (full-length human SMARCA2 isoform 1) (Homo sapiens)"
  IC50, nM: 5240
- Compound: "O=C(Nc1cc(F)c(=O)n(CC(F)F)c1)c1cc(C2CN(c3ccncc3)C2)c(Cl)s1 [Compound 77c]"
  Study Target: "FL-SMARCA2 (full-length human SMARCA2 isoform 1) (Homo sapiens)"
  IC50, nM: 6560
- Compound: "O=C(Nc1cc(F)c(=O)n(CC(F)F)c1)c1cc2c(s1)C(F)(F)CNC2 [Compound 114c]"
  Study Target: "FL-SMARCA2 (full-length human SMARCA2 isoform 1) (Homo sapiens)"
  IC50, nM: 30500
- Compound: "Cc1nnc(C#Cc2cc(C(=O)Nc3cc(F)c(=O)n(CC(F)F)c3)sc2Cl)[nH]1 [Compound 127c]"
  Study Target: "FL-SMARCA2 (full-length human SMARCA2 isoform 1) (Homo sapiens)"
  IC50, nM: 352
- Compound: "CNC(=O)c1cc(C#Cc2cc(C(=O)Nc3cc(F)c(=O)n(CC(F)F)c3)sc2Cl)ccn1 [Compound 130c]"
  Study Target: "FL-SMARCA2 (full-length human SMARCA2 isoform 1) (Homo sapiens)"
  IC50, nM: 16.6
- Compound: "Cc1ncc(C#Cc2cc(C(=O)Nc3cc(F)c(=O)n(CC(F)F)c3)sc2Cl)o1 [Compound 62c]"
  Study Target: "FL-SMARCA2 (full-length human SMARCA2 isoform 1) (Homo sapiens)"
  IC50, nM: 8.05
- Compound: "O=C(Nc1cc(F)c(=O)n(CC(F)F)c1)c1cc(C#Cc2ccccn2)c(Cl)s1 [Compound 81c]"
  Study Target: "FL-SMARCA2 (full-length human SMARCA2 isoform 1) (Homo sapiens)"
  IC50, nM: 79.8
- Compound: "O=C(Nc1cc(F)c(=O)n(CC(F)F)c1)c1cc(C#Cc2ccc3c(c2)C(=O)NC3)c(Cl)s1 [Compound 145c]"
  Study Target: "FL-SMARCA2 (full-length human SMARCA2 isoform 1) (Homo sapiens)"
  IC50, nM: 81.7

1 = O=C(Nc1cc(F)c(=O)n(CC(F)F)c1)c1cc(C#Cc2cccnc2)c(C(F)(F)F)s1 [Compound 65c]
2 = COc1ccc(C#Cc2cc(C(=O)Nc3cc(F)c(=O)n(CC(F)F)c3)sc2Cl)cc1 [Compound 44c]
3 = O=C(Nc1cc(F)c(=O)n(CC(F)F)c1)c1cc(C#Cc2cnn(CCO)c2)c(Cl)s1 [Compound 122c]
4 = NC(=O)c1nc(C#Cc2cc(C(=O)Nc3cc(F)c(=O)n(CC(F)F)c3)sc2Cl)cs1 [Compound 111c]
INPUT: Arrange items by their IC50 values in increasing order. Present the labels in the sequence the task asks for.
OUTPUT: 4, 1, 3, 2

---

Target: FL-SMARCA2 (full-length human SMARCA2 isoform 1) (Homo sapiens)
Construct: FLAG tag (YKDDDDK) (C); made in house; host or cells: Sf21 insect cells (baculovirus, pFastBacI)
Test: SMARCA2 ATPase activity assay (ADP-Glo, chicken mononucleosome substrate)
Format: biochemical
Details: Table 3.1; ATPase assay, enzyme 5 nM, ATP 250 uM, chicken mononucleosome 10 nM, 30 min preincubation
Description: Molecular Biology: Full-length human SMARCA2 isoform 1 (P51531) transcript clone was amplified from a cDNA library incorporating an N-terminal HIS tag ([…]) fused directly to Ser2 of SMARCA2 and a C-FLAG tag (YKDDDDK) fused directly to Glu1590 of SMARCA2. […] Expressed full-length SMARCA2 was purified from cell paste by FLAG affinity chromatography followed by anion exchange chromatography. […] The purity of the protein was measured as 74% using micro-capillary based gel electrophoresis.
pIC50: −log10 of the molar value.
Value Type: pIC50

- Compound: "Cn1c(C(=O)Nc2cc(Cl)c(=O)n(CC(F)(F)F)c2)cnc1Cl [Compound 195]"
  pIC50: 5.12

I = O=C(Nc1cc(F)c(=O)n(CCF)c1)c1cnc(OC(F)F)s1 [Compound 269]
II = COc1ccc(Cn2c(C(=O)Nc3ccc(=O)n(CCF)c3)cc(Cl)c2C#N)cc1 [Compound 200]
INPUT: Among I and II , which shows a numerically higher pIC50 result? Your answer should be the label of the entry you select.
OUTPUT: I
